Source listed as paper PMC5540273.

Tested on: ASK1
Construct: gene MAP3K5
run-parameters: concentration: 1 μM, replicates: in singlicate; n = 1
Outcome label depends on %Inh relative to 1%: at/above gives 1, below gives -1.

These recorded examples may help you get a feel for the data.
O=C1NC(=O)C(N2CCc3ccccc32)=C1c1ccccc1Cl [SB-373598] :: 1
Nc1nc(-c2nccs2)c(-c2ccnc3ccccc23)s1 [GW693542] :: 1
Cc1c(Cn2ccn3c(=O)cc(N4CCOCC4)nc23)cccc1C(F)(F)F [GSK2289044] :: 1
COC(=O)c1c(-c2ccccc2)c2cc(OC)ccc2c(=O)n1Cc1ccccc1 :: -1
CC1=C(C(=O)Nc2cc3cn[nH]c3cc2F)C(c2ccc(C(F)(F)F)cc2)CC(=O)N1 (stereo not drawn) [GSK429286] :: -1
O=C(Nc1n[nH]c2cc(-c3cccc(F)c3F)ccc12)C1CC1 [SB-733894] :: -1
Fc1cccc(COc2nnc(-c3ccc4c(c3)CCO4)o2)c1 :: -1

Now consider a different compound.
Tell me whether %Inh is at least 1% here: Cc1cccc(-c2nc(C)cc(Nc3ccncc3)n2)n1 [GSK257997]
-1

====

Test system: IRAK4
run-parameters: concentration: 1 μM, replicates: in singlicate; n = 1
readout-type: %Inh (%)
Answers are plain numbers, in %.

Cc1cccc(-c2cc(Nc3ccncc3)c3ccccc3n2)n1 :: 13
O=C1NC(=O)C(N2CCc3ccccc32)=C1c1ccccc1Cl :: 7
Nc1nc(-c2nccs2)c(-c2ccnc3ccccc23)s1 :: 16

API: the following record is the query input.
Lab note: CC1=C(C(=O)Nc2cc3cn[nH]c3cc2F)C(c2ccc(C(F)(F)F)cc2)CC(=O)N1 (stereo not shown) gave %Inh of 17

====

System: EPHA8
run-parameters: concentration: 1 μM, replicates: in singlicate; n = 1
readout-type: %Inh (%)
Answers are plain numbers, in %.

As a guide, the following entries are already answered.
COc1cccc(NC(=O)NC2CCN(c3ccnc(Nc4ccc(F)cc4)n3)C2)c1 (stereo not drawn) :: 3
Cc1ccc(C(=O)Nc2ccc(Nc3ccnc4cc(-c5ccccn5)ccc34)cc2O)cc1.Cl :: 10
COc1ccccc1-c1ccc2c(NC(=O)C3CC3)n[nH]c2n1 :: 9
Cn1cncc1-c1ccc2ncnc(Nc3ccc(OCc4ccccc4)cc3)c2c1 :: 12
Cc1c(Cn2ccn3c(=O)cc(N4CCOCC4)nc23)cccc1C(F)(F)F :: 0
COc1ccccc1CNC(=O)c1cc(C(=O)c2ccccc2C)c[nH]1 :: 19
O=C(O)COc1ncnc2cc(-c3ccc4[nH]ncc4c3)sc12 :: 0
Nc1ncnc2[nH]c(-c3ccccc3)nc12 :: 25

Lab note: CCn1c(-c2ccccn2)nc2cnccc21 gave %Inh of 5

====

Kindly supply the reported Kd values for the records listed here.
System: AURKB;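 also: kd values determined as follow-up on hits from a single-replicate KINOMEscan panel screen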
Numbers only, in nM.

Cn1ccc2ncnc(Oc3ccc(NC(=O)Nc4ccccc4)cc3)c21 :: 110

Report Kd for each item below.
1. COc1cc(Nc2nccc(N3CCC(NC(=O)Nc4cc(C)ccc4C)C3)n2)cc(OC)c1OC (centres unmarked) [GSK1379762]
2. Cn1ccc2ncnc(Oc3ccc(Nc4nc5ccccc5[nH]4)cc3)c21
3. O=C(Nc1ccc2c(c1)OCO2)NC1CCN(c2ccnc(Nc3ccc(F)cc3)n2)C1 (centres unmarked) [GSK1379724]
4. COc1ccc(CNC(=O)NC2CCN(c3ccnc(Nc4cc(OC)c(OC)c(OC)c4)n3)C2)cc1 (centres unmarked) [GSK1379748]

[240, 59, 6900, 330]

====

System: RSK4(Kin.Dom.1-N-terminal)
Construct: gene RPS6KA6
run-parameters: concentration: 1 μM, replicates: in singlicate; n = 1
Kindly supply the reported %Inh values for the records listed here.

Cc1cccc(-c2nc(-c3ccc(S(C)(=O)=O)cc3)sc2-c2ccnc(NCCc3ccccc3)c2)c1 :: 0%

Report %Inh for each item below.
1. O=C(Nc1n[nH]c2cc(-c3cccc(F)c3F)ccc12)C1CC1
2. COc1ccccc1CNC(=O)c1cc(C(=O)c2ccccc2C)c[nH]1
3. O=C(Nc1ccccc1)Nc1cccc(Oc2ccc3nccn3n2)c1
4. CSc1nn2c(=O)cc(N3CCOCC3)nc2n1Cc1cccc(C(F)(F)F)c1C

1: 0%; 2: 0%; 3: 0%; 4: 0%

Report %Inh for each item below.
1. CC1=C(C(=O)Nc2cc3cn[nH]c3cc2F)C(c2ccc(C(F)(F)F)cc2)CC(=O)N1 (stereo not shown)
2. Cc1ccc(NC(=O)Nc2cccc(Cl)c2)cc1-c1ccc(C(=O)Nc2ccncc2)cc1
3. CN1C(=O)C(Nc2ccc(Cl)c(C(=O)O)c2)=C(c2ccc(Cl)cc2)C1=O
4. Cn1ccc2ncnc(Oc3cccc(C(=O)Nc4ccccc4)c3)c21
5. O=C(Nc1n[nH]c2nc(-c3nccs3)c(Br)cc12)C1CCCC1

1. 0%
2. 0%
3. 33%
4. 14%
5. 0%

Report %Inh for each item below.
1. COc1cc2nccc(Nc3ccc(NC(=O)c4ccc(C)cc4)c(O)c3)c2cc1OC.Cl
2. Cl.c1ccc(-c2n[nH]cc2-c2ccnc(-c3ccc(CN4CCOCC4)cc3)c2)nc1
3. O=C(Nc1n[nH]c2nc(-c3nccs3)c(Br)cc12)C1CC1
4. Cc1cccc(-c2cc(Nc3ccncc3)c3ccccc3n2)n1
5. Cl.NC(=O)c1cccc(Nc2nccc(Nc3ccc(Oc4cccc(Cl)c4)c(Cl)c3)n2)c1
6. CCn1c(-c2ccccn2)nc2cnccc21

["0%", "13%", "0%", "0%", "0%", "1%"]

Report %Inh for each item below.
1. CC(=O)Nc1nc2cnc(Nc3cc(NC(=O)c4cccc(CCC#N)c4)ccc3C)nc2s1
2. CCCc1ccc(S(=O)(=O)NC2CCN(c3ccnc(Nc4ccc(F)cc4)n3)C2)cc1 (stereo not shown)
3. CN(C)CCN(C)C(=O)c1cc(-c2ccncc2)c(-c2ccc(Cl)c(O)c2)o1.Cl.Cl
4. Nc1ncnc2[nH]c(-c3ccccc3)nc12

1. 24%
2. 0%
3. 0%
4. 9%

Report %Inh for each item below.
1. COc1ccc2nc(-c3cccc(C)n3)nc(Nc3ccncc3)c2c1
2. COC(=O)c1c(-c2ccccc2)c2cc(C(=O)O)ccc2c(=O)n1Cc1ccccc1
3. COC(=O)c1c(-c2ccccc2)c2cc(OC)ccc2c(=O)n1Cc1ccccc1
4. COc1cc2ncnc(Nc3ccc4nc(-c5ccccc5)[nH]c4c3)c2cc1OC.Cl

1. 0%
2. 0%
3. 0%
4. 1%

Report %Inh for each item below.
1. Cc1ccccc1-n1cnc2c(N)ncnc21
2. O=C(O)COc1ncnc2cc(-c3ccc4[nH]ncc4c3)sc12
3. Nc1nc(-c2nccs2)c(-c2ccnc3ccccc23)s1
4. Clc1cc(Cl)cc(Nc2ccnc(Nc3cc(Cl)cc(Cl)c3)n2)c1
5. Cl.Oc1ccc(-c2nc(-c3ccccc3)[nH]c2-c2ccncc2)cc1
6. Cc1cccc(-c2nc(Nc3ccncc3)c3ccccc3n2)n1
7. Cc1cccc(-c2nc(Nc3ccc4[nH]ncc4c3)c3ccccc3n2)n1

1. 0%
2. 23%
3. 0%
4. 13%
5. 0%
6. 0%
7. 35%

====

System: CHEK2
run-parameters: concentration: 1 μM, replicates: in singlicate; n = 1
Kindly supply the reported %Inh values for the records listed here.
Answers are plain numbers, in %.

As a guide, the following entries are already answered.
O=C(Nc1ccc2c(c1)OCO2)NC1CCN(c2ccnc(Nc3ccc(F)cc3)n2)C1 (stereo not shown) :: 0
Cc1ccc(-c2cc(-c3c[nH]nc3-c3ccccn3)ccn2)cc1 :: 53

Report %Inh for each item below.
1. CS(=O)(=O)c1ccc(-c2nc3n(c2-c2ccncc2)CCC3)cc1
2. COc1ccccc1CNC(=O)c1cc(C(=O)c2ccccc2C)c[nH]1

0
0

Report %Inh for each item below.
1. COC(=O)c1c(-c2ccccc2)c2cc(OC)ccc2c(=O)n1Cc1ccccc1
2. Cc1c(Cn2ccn3c(=O)cc(N4CCOCC4)nc23)cccc1C(F)(F)F
3. Cc1cccc(-c2nc(-c3ccc(S(C)(=O)=O)cc3)sc2-c2ccnc(NCCc3ccccc3)c2)c1
4. Cn1ccc2ncnc(Oc3cccc(C(=O)Nc4ccccc4)c3)c21
5. Cc1ccc(NC(=O)Nc2cccc(Cl)c2)cc1-c1ccc(C(=O)Nc2ccncc2)cc1
6. Fc1cc(Cl)ccc1Nc1ccnc2cc(-c3ccc(CN4CCCCC4)o3)ccc12
7. Clc1cc(Cl)cc(Nc2ccnc(Nc3cc(Cl)cc(Cl)c3)n2)c1
8. Nc1nc(-c2nccs2)c(-c2ccnc3ccccc23)s1

1: 15; 2: 0; 3: 0; 4: 0; 5: 0; 6: 35; 7: 0; 8: 0

Lab note: Cc1cccc(-c2nc(Nc3ccncc3)c3ccccc3n2)n1 gave %Inh of 0

====

Tested on: GRK4
run-parameters: concentration: 1 μM, replicates: in singlicate; n = 1
readout-type: %Inh (%)
Give bare numbers, in %.

As a guide, the following entries are already answered.
CCCc1ccc(S(=O)(=O)NC2CCN(c3ccnc(Nc4ccc(F)cc4)n3)C2)cc1 (stereo not drawn) :: 0
CCn1c(-c2cccnc2O)nc2cnccc21 :: 19
CN1C(=O)C(Nc2ccc(Cl)c(C(=O)O)c2)=C(c2ccc(Cl)cc2)C1=O :: 19
Cl.c1ccc(-c2n[nH]cc2-c2ccnc(-c3ccc(CN4CCOCC4)cc3)c2)nc1 :: 31
Nc1ncnc2[nH]c(-c3ccccc3)nc12 :: 0
Cc1ccc(C(=O)Nc2ccc(Nc3ccnc4cc(-c5ccccn5)ccc34)cc2O)cc1.Cl :: 0
COc1ccc(Nc2nccc(-c3cccc(NC(=O)c4cc5cc(F)ccc5[nH]4)c3)n2)cc1 :: 0
Cc1cccc(-c2nc(C)cc(Nc3ccncc3)n2)n1 :: 0

API: the following record is the query input.
Lab note: CCn1c(-c2ccccn2)nc2cnccc21 gave %Inh of 1
